Provenance of the data: patent US10844032B2

As shown below, each of these compounds has a reported Ki value.
- SYSTEM_NAME: recombinant Mcl-1 (residues 172-327) (Homo sapiens (Human))
- PROTOCOL_DESCRIPTION: Bak peptide fluorescence polarization anisotropy competition assay, Mcl-1
- Type: binding
- STUDY_CONDITIONS: read-out: Ki for inhibition of Mcl-1

Cc1cc(OCCCc2c(C(=O)NS(=O)(=O)CCN3C(=O)c4ccccc4C3=O)[nH]c3cc(Cl)ccc23)cc(C)c1Cl = 101 to 299 nM
Cc1cc(OCCCc2c(C(=O)NS(=O)(=O)CCNC(=O)c3c(C)nn(C)c3C)[nH]c3ccccc23)cc(C)c1Cl = 1000 to 9990 nM
Cc1cc(OCCCc2c(C(=O)NS(=O)(=O)c3ccccc3)n(C)c3cc(Cl)ccc23)cc(C)c1Cl = 301 to 500 nM

Input line: May I ask what Ki has been recorded for Cc1cc(OCCCc2c(C(=O)NS(=O)(=O)CCNC(=O)c3cccn3Cc3ccccc3)[nH]c3ccccc23)cc(C)c1Cl ?
Output line: 101 to 299 nM

----------
- SYSTEM_NAME: recombinant Mcl-1 (residues 172-327) (Homo sapiens (Human))
- PROTOCOL_DESCRIPTION: Bak peptide fluorescence polarization anisotropy competition assay, Mcl-1
- Format: binding
- STUDY_CONDITIONS: read-out: Ki for inhibition of Mcl-1
MEASUREMENT_TYPE: Ki

Worked examples, 3 molecules total:
Cc1cc(OCCCc2c(C(=O)NS(=O)(=O)c3ccc(-c4ccccc4)cc3)[nH]c3ccccc23)cc(C)c1Cl [Example 139] = 301 to 500 nM
COc1ccc(Oc2cccc(S(=O)(=O)NC(=O)c3[nH]c4cc(Cl)ccc4c3CCCOc3cc(C)c(Cl)c(C)c3)c2)cc1 [Example 220] = 101 to 299 nM
Cc1cc(OCCCc2c(C(=O)NS(=O)(=O)C3CC3)sc3ccccc23)cc(C)c1Cl [Example 69] = 1000 to 9990 nM

Input line: May I ask what Ki has been recorded for Cc1cc(OCCCc2c(C(=O)NS(=O)(=O)CCNC(=O)c3ccoc3C)[nH]c3cc(Cl)ccc23)cc(C)c1Cl [Example 227] ?
Output line: 101 to 299 nM

Input line: May I ask what Ki has been recorded for O=C(NS(=O)(=O)Cc1ccccc1)c1sc2ccccc2c1CCCOc1cccc2ccccc12 [Example 62] ?
Output line: 1000 to 9990 nM

Input line: May I ask what Ki has been recorded for Cc1cc(OCCCc2c(C(=O)NS(C)(=O)=O)[nH]c3cc(Cl)ccc23)cc(C)c1Cl [Example 54] ?
Output line: 101 to 299 nM

Input line: May I ask what Ki has been recorded for Cc1cc(OCCCc2c(C(=O)NS(=O)(=O)c3ccc(OCc4ccccc4)cc3)[nH]c3ccccc23)cc(C)c1Cl [Example 136] ?
Output line: 101 to 299 nM

Input line: May I ask what Ki has been recorded for Cc1cc(OCCCc2c(C(=O)NS(=O)(=O)Cc3ccccc3)sc3ccccc23)cc(C)c1Cl [Example 70] ?
Output line: 501 to 999 nM

----------
- SYSTEM_NAME: recombinant Mcl-1 (residues 172-327) (Homo sapiens (Human), UniProt Q07820)
- Sequence (Q07820 172-327): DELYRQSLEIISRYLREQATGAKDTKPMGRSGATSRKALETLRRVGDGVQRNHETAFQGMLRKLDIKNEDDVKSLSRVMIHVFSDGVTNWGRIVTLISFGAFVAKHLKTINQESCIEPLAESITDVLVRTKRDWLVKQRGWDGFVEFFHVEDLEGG
- PROTOCOL_DESCRIPTION: Bak peptide fluorescence polarization anisotropy competition assay, Mcl-1
- Type: binding
- STUDY_CONDITIONS: read-out: Ki for inhibition of Mcl-1
As shown below, each of these compounds has a reported Ki value.

Cc1cc(OCCCc2c(C(=O)NS(=O)(=O)CCNC(=O)NC3CCCCC3)[nH]c3ccccc23)cc(C)c1Cl = 301 to 500 nM
CCc1cc(OCCCc2c(C(=O)NS(C)(=O)=O)[nH]c3ccccc23)ccc1Cl = 1000 to 9990 nM
Cc1cc(OCCCc2c(C(=O)NS(=O)(=O)CCNC(=O)c3ccc4ccccc4c3)[nH]c3ccccc23)cc(C)c1Cl = 301 to 500 nM
CS(=O)(=O)NC(=O)c1[nH]c2ccccc2c1CCCOc1ccccc1 = 10000 to 50000 nM
Cc1cc(OCCCc2c(C(=O)NS(=O)(=O)CCNC(=O)c3cncs3)[nH]c3ccccc23)cc(C)c1Cl = 501 to 999 nM

Input line: What reported Ki corresponds to COc1ccc(S(=O)(=O)NC(=O)c2[nH]c3ccccc3c2CCCOc2cc(C)c(Cl)c(C)c2)c(OC)c1 on recombinant Mcl-1 (residues 172-327) (Homo sapiens (Human), UniProt Q07820)?
Output line: 301 to 500 nM

Input line: What reported Ki corresponds to Cc1cc(OCCCc2c(C(=O)NS(=O)(=O)c3ccc(C(=O)N4CCOCC4)n3C)[nH]c3cc(Cl)ccc23)cc(C)c1Cl on recombinant Mcl-1 (residues 172-327) (Homo sapiens (Human), UniProt Q07820)?
Output line: 101 to 299 nM

Input line: What reported Ki corresponds to Cc1cc(OCCCc2c(C(=O)NS(=O)(=O)CCNC(=O)c3ccc4cc[nH]c4c3)[nH]c3ccccc23)cc(C)c1Cl on recombinant Mcl-1 (residues 172-327) (Homo sapiens (Human), UniProt Q07820)?
Output line: 101 to 299 nM

Input line: What reported Ki corresponds to Cc1cc(OCCCc2c(C(=O)NS(=O)(=O)CCNC(=O)c3cc(F)cc(F)n3)[nH]c3ccccc23)cc(C)c1Cl on recombinant Mcl-1 (residues 172-327) (Homo sapiens (Human), UniProt Q07820)?
Output line: 1000 to 9990 nM

Input line: What reported Ki corresponds to Cc1cc(OCCCc2c(C(=O)NS(C)(=O)=O)[nH]c3c(-c4c(CO)nn(C)c4C)cccc23)cc(C)c1Cl on recombinant Mcl-1 (residues 172-327) (Homo sapiens (Human), UniProt Q07820)?
Output line: 101 to 299 nM
